assay: Inhibition of adenylyl cyclase activity in membranes of the human SH-SY5Y neuroblastoma cell line.; format: functional, cell-based; parameters: concentration or dose not given beside the values; settings: concentration not given here
The entries below are paired with their reported inhibition.
Give the number; % is assumed, so skip it.

Consider the reported inhibition for these compounds:
Line notation: CN(C)c1ccc2c3c1O[C@H]1[C@@H](O)C=C[C@H]4[C@@H](C2)N(C)CC[C@@]341
Unit spec: %
Experimental value: 13
//
Line notation: C[C@@H](NC(=O)[C@@H](N)Cc1ccc(O)cc1)C(=O)NCC(=O)N(C)[C@@H](Cc1ccccc1)C(=O)NCCO
Unit spec: %
Experimental value: 58
//
Line notation: CN1CC[C@]23c4c5ccc(NCc6ccccc6)c4O[C@H]2[C@@H](O)C=C[C@H]3[C@H]1C5
Unit spec: %
Experimental value: 17
//
Line notation: CNc1ccc2c3c1O[C@H]1[C@@H](O)C=C[C@H]4[C@@H](C2)N(C)CC[C@@]341
Unit spec: %
Experimental value: 29
//
Line notation: CN1CC[C@]23c4c5ccc(N)c4O[C@H]2[C@@H](O)C=C[C@H]3[C@H]1C5
Unit spec: %
Experimental value: 26

We now examine a further compound.
Which inhibition value is on record for CN1CC[C@]23c4c5ccc(Nc6ccccc6)c4O[C@H]2[C@@H](O)C=C[C@H]3[C@H]1C5 ?
44
